system: NCI-H196 complex spheroid growth, percent test/control; experiment: Anticancer human tumor NCI-H196 cell line growth inhibition [AhR]; conditions: second compound 3.16 µM; first compound 0.001 µM; hits give low values
viability, T/C listing for selected compounds.
Just the number in %, nothing appended.

Cn1ncnc1C1c2n[nH]c(=O)c3cc(F)cc(c23)NC1c1ccc(F)cc1 (stereo unspecified) + Cc1cncc(-c2nc(NCCc3c[nH]c4ccccc34)c3ncn(C(C)C)c3n2)c1 = 113

I have this compound here, CC[C@@]1(O)C(=O)OCc2c1cc1n(c2=O)Cc2cc3c(CN(C)C)c(O)ccc3nc2-1 + Cc1ccccc1N=Nc1ccc(NC(=O)c2ccnn2C)c(C)c1 , and I need its recorded viability, T/C.
101

Also check Cn1ncnc1C1c2n[nH]c(=O)c3cc(F)cc(c23)NC1c1ccc(F)cc1 (stereo unspecified) + CC(CO)NC(=O)c1cc(-c2ccc(Cl)cc2)nn(-c2cnn(C)c2)c1=O
119

====

system: NCI-H196 complex spheroid growth, percent test/control; experiment: Anticancer human tumor NCI-H196 cell line growth inhibition [AhR]; conditions: second compound 0.316 µM; first compound 0.00316 µM; hits give low values
measurement_kind: viability, T/C (%)
Just the number in %, nothing appended.

CC[C@@]1(O)C(=O)OCc2c1cc1n(c2=O)Cc2cc3c(CN(C)C)c(O)ccc3nc2-1 + Cc1ccccc1N=Nc1ccc(NC(=O)c2ccnn2C)c(C)c1 = 98.6
CC1COCCN1c1cc(-c2ccnn2C)c2ccnc(-c3ccn[nH]3)c2n1 (configuration not stated) + CC(CO)NC(=O)c1cc(-c2ccc(Cl)cc2)nn(-c2cnn(C)c2)c1=O = 105
CC1COCCN1c1cc(-c2ccnn2C)c2ccnc(-c3ccn[nH]3)c2n1 (configuration not stated) + Cc1ccccc1N=Nc1ccc(NC(=O)c2ccnn2C)c(C)c1 = 98.9
Cn1ncnc1C1c2n[nH]c(=O)c3cc(F)cc(c23)NC1c1ccc(F)cc1 (configuration not stated) + Cc1cncc(-c2nc(NCCc3c[nH]c4ccccc34)c3ncn(C(C)C)c3n2)c1 = 110
CC1COCCN1c1cc(-c2ccnn2C)c2ccnc(-c3ccn[nH]3)c2n1 (configuration not stated) + Cc1cncc(-c2nc(NCCc3c[nH]c4ccccc34)c3ncn(C(C)C)c3n2)c1 = 95.5
Nc1ncn(C2CC(O)C(CO)O2)c(=O)n1 (configuration not stated) + Cc1ccccc1N=Nc1ccc(NC(=O)c2ccnn2C)c(C)c1 = 104
CC[C@@]1(O)C(=O)OCc2c1cc1n(c2=O)Cc2cc3c(CN(C)C)c(O)ccc3nc2-1 + CC(CO)NC(=O)c1cc(-c2ccc(Cl)cc2)nn(-c2cnn(C)c2)c1=O = 105
Cn1ncnc1C1c2n[nH]c(=O)c3cc(F)cc(c23)NC1c1ccc(F)cc1 (configuration not stated) + CC(CO)NC(=O)c1cc(-c2ccc(Cl)cc2)nn(-c2cnn(C)c2)c1=O = 102
CC[C@@]1(O)C(=O)OCc2c1cc1n(c2=O)Cc2cc3c(CN(C)C)c(O)ccc3nc2-1 + Cc1cncc(-c2nc(NCCc3c[nH]c4ccccc34)c3ncn(C(C)C)c3n2)c1 = 98.8
Cn1ncnc1C1c2n[nH]c(=O)c3cc(F)cc(c23)NC1c1ccc(F)cc1 (configuration not stated) + Cc1ccccc1N=Nc1ccc(NC(=O)c2ccnn2C)c(C)c1 = 108

Please tell me: viability, T/C of Nc1ncn(C2CC(O)C(CO)O2)c(=O)n1 (configuration not stated) + CC(CO)NC(=O)c1cc(-c2ccc(Cl)cc2)nn(-c2cnn(C)c2)c1=O , system NCI-H196 complex spheroid growth, percent test/control?
107

Also check Nc1ncn(C2CC(O)C(CO)O2)c(=O)n1 (configuration not stated) + Cc1cncc(-c2nc(NCCc3c[nH]c4ccccc34)c3ncn(C(C)C)c3n2)c1
106

====

system: NCI-H196 complex spheroid growth, percent test/control; experiment: Anticancer human tumor NCI-H196 cell line growth inhibition [AhR]; conditions: second compound 3.16 µM; first compound 0.00949 µM; hits give low values
viability, T/C listing for selected compounds.
Just the number in %, nothing appended.

The examples below pair each entry with its known result.
CCN(c1cc(-c2ccc(CN3CCOCC3)cc2)cc(C(=O)NCc2c(C)cc(C)[nH]c2=O)c1C)C1CCOCC1 + CC(CO)NC(=O)c1cc(-c2ccc(Cl)cc2)nn(-c2cnn(C)c2)c1=O = 121
CC(C)CC(NC(=O)C(Cc1ccccc1)NC(=O)c1cnccn1)B(O)O (stereo not drawn) + Cc1ccccc1N=Nc1ccc(NC(=O)c2ccnn2C)c(C)c1 = 83.8

API: the following record is the query input.
I have this compound here, CCN(c1cc(-c2ccc(CN3CCOCC3)cc2)cc(C(=O)NCc2c(C)cc(C)[nH]c2=O)c1C)C1CCOCC1 + Cc1cncc(-c2nc(NCCc3c[nH]c4ccccc34)c3ncn(C(C)C)c3n2)c1 , and I need its recorded viability, T/C.
109

====

viability, T/C listing for selected compounds.
system: NCI-H196 complex spheroid growth, percent test/control; assay: Anticancer human tumor NCI-H196 cell line growth inhibition [AhR]; settings: second compound 3.16 µM; first compound 0.0949 µM; hits give low values;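 note: seven days of drug exposure starting three days after plating; 100% = DMSO vehicle control wells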
Just the number in %, nothing appended.

I have this compound here, Nc1ncn(C2CC(O)C(CO)S2)c(=O)n1 (stereo unspecified) + CC(CO)NC(=O)c1cc(-c2ccc(Cl)cc2)nn(-c2cnn(C)c2)c1=O , and I need its recorded viability, T/C.
120

Also check CCc1c2c(nc3ccc(O)cc13)-c1cc3c(c(=O)n1C2)COC(=O)[C@]3(O)CC + Cc1ccccc1N=Nc1ccc(NC(=O)c2ccnn2C)c(C)c1
82.7

Also check O=C(C=Cn1cnc(-c2cc(C(F)(F)F)cc(C(F)(F)F)c2)n1)NNc1cnccn1 + Cc1cncc(-c2nc(NCCc3c[nH]c4ccccc34)c3ncn(C(C)C)c3n2)c1
22.4

====

system: NCI-H196 complex spheroid growth, percent test/control; test: Anticancer human tumor NCI-H196 cell line growth inhibition [AhR]; details: second compound 10 µM; first compound 0.003 µM; hits give low values;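 note: seven days of drug exposure starting three days after plating; 100% = DMSO vehicle control wells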
measurement_kind: viability, T/C (%)
Just the number in %, nothing appended.

The examples below pair each entry with its known result.
CC(C)CC(NC(=O)C(Cc1ccccc1)NC(=O)c1cnccn1)B(O)O (stereo not drawn) + Cc1cncc(-c2nc(NCCc3c[nH]c4ccccc34)c3ncn(C(C)C)c3n2)c1 = 95
CCc1c2c(nc3ccc(O)cc13)-c1cc3c(c(=O)n1C2)COC(=O)[C@]3(O)CC + Cc1cncc(-c2nc(NCCc3c[nH]c4ccccc34)c3ncn(C(C)C)c3n2)c1 = 88.5

API: the following record is the query input.
I have this compound here, Nc1ncn(C2CC(O)C(CO)S2)c(=O)n1 (stereo not drawn) + Cc1cncc(-c2nc(NCCc3c[nH]c4ccccc34)c3ncn(C(C)C)c3n2)c1 , and I need its recorded viability, T/C.
92.9

====

viability, T/C listing for selected compounds.
system: NCI-H196 complex spheroid growth, percent test/control; assay: Anticancer human tumor NCI-H196 cell line growth inhibition [AhR]; settings: second compound 0.1 µM; first compound 0.000949 µM; hits give low values;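 note: seven days of drug exposure starting three days after plating; 100% = DMSO vehicle control wells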
Just the number in %, nothing appended.

The examples below pair each entry with its known result.
Nc1ncn(C2CC(O)C(CO)S2)c(=O)n1 (stereo not drawn) + Cc1cncc(-c2nc(NCCc3c[nH]c4ccccc34)c3ncn(C(C)C)c3n2)c1 = 109
CC(C)CC(NC(=O)C(Cc1ccccc1)NC(=O)c1cnccn1)B(O)O (stereo not drawn) + Cc1ccccc1N=Nc1ccc(NC(=O)c2ccnn2C)c(C)c1 = 97.6

API: the following record is the query input.
I have this compound here, CCc1c2c(nc3ccc(O)cc13)-c1cc3c(c(=O)n1C2)COC(=O)[C@]3(O)CC + CC(CO)NC(=O)c1cc(-c2ccc(Cl)cc2)nn(-c2cnn(C)c2)c1=O , and I need its recorded viability, T/C.
98

====

system: NCI-H196 complex spheroid growth, percent test/control; test: Anticancer human tumor NCI-H196 cell line growth inhibition [AhR]; details: second compound 0.1 µM; first compound 0.1 µM; hits give low values;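 note: seven days of drug exposure starting three days after plating; 100% = DMSO vehicle control wells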
viability, T/C listing for selected compounds.
Just the number in %, nothing appended.

The examples below pair each entry with its known result.
NS(=O)(=O)OCC1CC(n2ccc3c(NC4CCc5ccccc54)ncnc32)CC1O (configuration not stated) + CC(CO)NC(=O)c1cc(-c2ccc(Cl)cc2)nn(-c2cnn(C)c2)c1=O = 79.8
COc1cc(Nc2ncc3c(n2)-c2ccc(Cl)cc2C(c2c(F)cccc2OC)=NC3)ccc1C(=O)O + CC(CO)NC(=O)c1cc(-c2ccc(Cl)cc2)nn(-c2cnn(C)c2)c1=O = 107
Nc1ccccc1NC(=O)c1ccc(CNC(=O)OCc2cccnc2)cc1 + Cc1ccccc1N=Nc1ccc(NC(=O)c2ccnn2C)c(C)c1 = 78.3
CC(C)c1c(-c2ccccc2)nc2c(C#N)c[nH]n2c1=O + Cc1cncc(-c2nc(NCCc3c[nH]c4ccccc34)c3ncn(C(C)C)c3n2)c1 = 110
CC1COCCN1c1cc(C2(S(C)(=N)=O)CC2)nc(-c2ccnc3[nH]ccc23)n1 (configuration not stated) + CC(CO)NC(=O)c1cc(-c2ccc(Cl)cc2)nn(-c2cnn(C)c2)c1=O = 115
CC1COCCN1c1cc(C2(S(C)(=N)=O)CC2)nc(-c2ccnc3[nH]ccc23)n1 (configuration not stated) + Cc1ccccc1N=Nc1ccc(NC(=O)c2ccnn2C)c(C)c1 = 101
COc1cccc2c1C(=O)c1c(O)c3c(c(O)c1C2=O)CC(O)(C(=O)CO)CC3OC1CC(N)C(O)C(C)O1 (configuration not stated) + Cc1ccccc1N=Nc1ccc(NC(=O)c2ccnn2C)c(C)c1 = 102
CC[C@@]1(O)C(=O)OCc2c1cc1n(c2=O)Cc2cc3c(CN(C)C)c(O)ccc3nc2-1 + CC(CO)NC(=O)c1cc(-c2ccc(Cl)cc2)nn(-c2cnn(C)c2)c1=O = 119
NS(=O)(=O)OCC1CC(n2ccc3c(NC4CCc5ccccc54)ncnc32)CC1O (configuration not stated) + Cc1cncc(-c2nc(NCCc3c[nH]c4ccccc34)c3ncn(C(C)C)c3n2)c1 = 65.6
Cn1ncnc1C1c2n[nH]c(=O)c3cc(F)cc(c23)NC1c1ccc(F)cc1 (configuration not stated) + Cc1cncc(-c2nc(NCCc3c[nH]c4ccccc34)c3ncn(C(C)C)c3n2)c1 = 96

I have this compound here, O=C(C=Cc1cccc(S(=O)(=O)Nc2ccccc2)c1)NO + CC(CO)NC(=O)c1cc(-c2ccc(Cl)cc2)nn(-c2cnn(C)c2)c1=O , and I need its recorded viability, T/C.
92.2

Also check O=C(c1cc(Cc2n[nH]c(=O)c3ccccc23)ccc1F)N1CCN(C(=O)C2CC2)CC1 + Cc1ccccc1N=Nc1ccc(NC(=O)c2ccnn2C)c(C)c1
101
